- Method: qHTS of pediatric cancer cell lines to identify multiple opportunities for drug repurposing: Confirmatory screen for SJ-GBM2 cells (AID 1347116);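 also: 48 hour compound exposure; nearly all actives have a fitted effect of over 60% in size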
- Assay conditions: SJ-GBM2 glioblastoma cells, viability; series mostly up to 45.9 µM
Records with an inconclusive call do not appear. The source made the active and inactive calls. Calls follow the shape of the dose curve; as a rule, active = well fitted cell-killing curve with a large enough effect; inconclusive = small, poorly fitted or top-dose-only effect, or effect the other way; inactive = no such curve, though single readings can be large or run the other way.
Your reply should match one of these outcome classes. yes (1) (active), no (0) (inactive)

Cc1[nH]c2ccccc2c1CCNCc1ccc(C=CC(=O)NO)cc1    no (0)
Nc1ncnc2c1c(-c1cnc3[nH]ccc3c1)nn2C1CCCC1    yes (1)
NC(=O)Nc1cc(-c2cccc(F)c2)sc1C(=O)N[C@H]1CCCNC1    yes (1)

QUERY: Query: recorded result category for `C#Cc1cccc(Nc2ncnc3cc(OC)c(OCCCCCCC(=O)NO)cc23)c1` in this test
RESULT: yes (1)
